system.under.test: BCLXL (Homo sapiens, UniProt Q07817, V10N/V9A)
Sequence (Q07817 with tags, fused parts or gaps V9A/V10N): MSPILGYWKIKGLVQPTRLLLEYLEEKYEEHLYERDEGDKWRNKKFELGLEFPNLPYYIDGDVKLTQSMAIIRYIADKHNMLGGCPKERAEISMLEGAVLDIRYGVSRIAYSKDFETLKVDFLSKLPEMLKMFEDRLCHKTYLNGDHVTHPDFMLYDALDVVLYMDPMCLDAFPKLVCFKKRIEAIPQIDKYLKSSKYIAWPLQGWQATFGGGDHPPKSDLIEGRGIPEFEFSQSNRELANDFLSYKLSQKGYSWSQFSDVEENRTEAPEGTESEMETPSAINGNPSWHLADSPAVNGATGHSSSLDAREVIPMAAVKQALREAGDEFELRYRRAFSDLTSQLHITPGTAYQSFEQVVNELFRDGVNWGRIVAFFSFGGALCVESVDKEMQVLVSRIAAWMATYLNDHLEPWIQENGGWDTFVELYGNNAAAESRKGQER
assay.notes: AlphaLISA assay (BIM peptide displacement)
details: 20 pM protein, 1 nM peptide
pIC50: −log10 of the molar value.
assay.readout: pIC50

compound	system.under.test	experimental.result
Cc1cc(N(C)c2nc(C(=O)O)c(C3CCN(S(=O)(=O)Cc4ccccc4)CC3)s2)nnc1Nc1nc2ccccc2s1	BCLXL (Homo sapiens, UniProt Q07817, V10N/V9A)	7.66
Cc1cc(N(C)c2nc(C(=O)O)c(C3CN(c4ccccc4)C3)s2)nnc1Nc1nc2ccccc2s1	BCLXL (Homo sapiens, UniProt Q07817, V10N/V9A)	7.10
Cc1cc(N(C)c2nc(C(=O)O)c(C3CNC3)s2)nnc1Nc1nc2ccccc2s1	BCLXL (Homo sapiens, UniProt Q07817, V10N/V9A)	6.57
Cc1cc(N(CCCC(O)CN(C)C)c2nc(C(=O)O)cs2)nnc1Nc1nc2ccccc2s1 (centres unmarked)	BCLXL (Homo sapiens, UniProt Q07817, V10N/V9A)	7.66
Cc1cc(N(CCCC(O)CN2CCOCC2)c2nc(C(=O)O)cs2)nnc1Nc1nc2ccccc2s1 (centres unmarked)	BCLXL (Homo sapiens, UniProt Q07817, V10N/V9A)	8.57
CNCC#Cc1ccc(OCCCc2sc(N(CCCC(O)CO)c3cc(C)c(Nc4nc5ccccc5s4)nn3)nc2C(=O)O)c(F)c1 (centres unmarked)	BCLXL (Homo sapiens, UniProt Q07817, V10N/V9A)	11.22

[P] Cc1c(Nc2nc(C(=O)O)c(CCCOc3ccc(C#CCN(C)C)cc3F)s2)nnc(Nc2nc3ccccc3s2)c1C
[Q] Cc1cc(N(CCCC(O)CN2CCC(N)CC2)c2nc(C(=O)O)c(CCCOc3ccc(C#CCN(C)C)cc3F)s2)nnc1Nc1nc2ccccc2s1 (centres unmarked)
[R] Cc1cc(N(C)c2nc(C(=O)O)c(CC(C)(C)COc3ccc(C#CCN(C)C)cc3F)s2)nnc1Nc1nc2ccccc2s1
input: Hey, quick one: sort these by pIC50, low to high? Write out the labels following the order that was asked for.
output: R, P, Q

[A] COCCCN(c1cc(C)c(Nc2nc3ccccc3s2)nn1)c1nc(C(=O)O)c(CCCOc2ccccc2)s1
[B] Cc1cc(N(CCCCCN(C)C2CCNCC2)c2nc(C(=O)O)c(CCCOc3ccc(C#CCN(C)C)cc3F)s2)nnc1Nc1nc2ccccc2s1
input: Recorded pIC50 values differ for A and B ; which one is higher? Lab log: write the label of the selected item as the result.
output: B
(B: 10.72, A: 9.00)

[A] CNCC(O)CCCN(c1cc(C)c(Nc2nc3ccccc3s2)nn1)c1nc(C(=O)O)c(CCCOc2ccc(C#CCN(C)C)cc2F)s1 (centres unmarked)
[B] CNCCN(C)CC#Cc1ccc(OCCCc2sc(N(C)c3cc(C)c(Nc4nc5ccccc5s4)nn3)nc2C(=O)O)c(F)c1
input: Of the pair A and B , name the member with the lesser recorded pIC50. Lab log: write the label of the selected item as the result.
output: B
(B: 10.13, A: 10.89)

====

system.under.test: BCLXL (Homo sapiens, UniProt Q07817, V10N/V9A)
assay.notes: Fluorescence polarisation assay (PUMA-based probe displacement); note: 20 nM protein, 10 nM fluorescent probe
Experimental: Fluorescence polarization measures the rotation of a fluorescing species in solution, the larger the molecule the more polarized the fluorescence emission. [[…]] […] An 11-point serial dilution of each compound was prepared in DMSO, the final buffer conditions were 10 mM 4-(2-hydroxyethyl)-1-piperazineethanesulfonic acid [HEPES], 150 mM NaCl, 0.05% Tween 20, pH 7.4 and 5% DMSO. […] The KI values were determined from the IC50 values according to Cer et al, Nucleic Acids Res, 2009, Jul. […]
pKi: −log10 of the molar value.
assay.readout: pKi

[P] Cc1cc(N(CC(O)CO)c2nc(C(=O)O)cs2)nnc1Nc1nc2ccccc2s1 (stereo not drawn)
[Q] Cc1cc(N(CC(CO)N2CCOCC2)c2nc(C(=O)O)cs2)nnc1Nc1nc2ccccc2s1 (stereo not drawn)
[R] Cc1c(Nc2nc(C(=O)O)cs2)nnc(Nc2nc3cc(F)c(F)cc3s2)c1C
[S] COCCN(c1cc(C)c(Nc2nc3ccccc3s2)nn1)c1nc(C(=O)O)cs1
input: Form: Sort by [pKi] Order [ ascending ] Write out the labels following the order that was asked for.
output: R, Q, S, P
(R: 6.46, Q: 6.89, S: 7.27, P: 7.85)

[1] Cc1cc(N(C)c2nc(C(=O)O)c(C3CCN(C)CC3)s2)nnc1Nc1nc2ccccc2s1
[2] Cc1cc(N(C)c2nc(C(=O)O)c(C3CN(C(=O)NCc4ccccc4)C3)s2)nnc1Nc1nc2ccccc2s1
[3] Cc1cc(N(C)c2nc(C(=O)O)c(N3CCC(COc4ccccc4)CC3)s2)nnc1Nc1nc2ccccc2s1
[4] Cc1cc(N(C)c2nc(C(=O)O)c(C3CCNCC3)s2)nnc1Nc1nc2ccccc2s1
input: Falling order of pKi, please. Write out the labels following the order that was asked for.
output: 3, 2, 4, 1

[a] Cc1cc(N(C)c2nc(C(=O)O)c(C3CCN(C(=O)c4ccccc4)CC3)s2)nnc1Nc1nc2ccccc2s1
[b] Cc1cc(N(C)c2nc(C(=O)O)c(N3CC(Oc4ccccc4)C3)s2)nnc1Nc1nc2ccccc2s1
input: Recorded pKi values differ for a and b ; which one is higher? Lab log: write the label of the selected item as the result.
output: b
(b: 8.38, a: 6.80)
